Tested on: PXR:RXRa (NR concentration 270 nM, RXRa partner concentration 90 nM)
PROCEDURE TEXT: PBM binding z-score (relative to random genomic background probes); higher = stronger binding; sequences stand for … in GC…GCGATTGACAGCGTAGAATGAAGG
QUANTITY NAME: PBM binding z-score
Give bare numbers.

SEQUENCE ENTRY | PBM binding z-score
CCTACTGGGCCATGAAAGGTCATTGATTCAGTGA | 5.2
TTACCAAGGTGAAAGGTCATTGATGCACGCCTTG | 6.35
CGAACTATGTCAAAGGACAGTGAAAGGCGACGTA | -0.558

// batch mode: one PBM binding z-score value per listed entry
1. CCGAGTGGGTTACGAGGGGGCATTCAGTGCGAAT
2. ATATGTAGGTTAGGCTCATTCAGAAAGTAGGGAA
3. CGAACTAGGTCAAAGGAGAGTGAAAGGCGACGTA

output:
4.8
-0.124
1.1
